Tested on: MCF7 breast
Assay: NCI-60 one-dose screen, 48 h (100 = growth as untreated, 0 = no growth, -100 = all killed)
Conditions: 10 µM unless noted
The panel holds about 83,000 compounds, 20% with a hit somewhere; the sample as a whole holds those more often.
Category | rule: reported growth within range, see bottom end = under 20%, midrange = from 20% up to 50%, top end = 50% and over

INSERT INTO measurements (compound, assigned_label) VALUES
  ('Nc1cc2c(cc1Br)-c1c(C(=O)O)cccc1C2O (stereo not drawn)', 'top end'),
  ('Cc1cc(Oc2ccccc2)ccc1Nc1ncnc2ccc(-c3cnc(Cl)c(NS(C)(=O)=O)c3)cc12', 'bottom end'),
  ('COc1cc(NCCCN)c2ncccc2c1', 'top end'),
  ('COc1ccc(C2CC(=O)c3c(O)c(OC)c(OC)c(OC)c3O2)cc1O (stereo not drawn)', 'midrange'),
  ('CS(=O)(=O)N1CCN(Cc2cc3nc(-c4cccc5[nH]ncc45)nc(N4CCOCC4)c3s2)CC1', 'bottom end'),
  ('C#Cc1cccc(Nc2ncnc3cc(OCCOC)c(OCCOC)cc23)c1', 'top end'),
  ('CC(C)(C)c1ccc(Cn2cc(CSc3nc4ccccc4s3)nn2)cc1', 'top end'),
  ('O=C1/C(=C\c2cccc(OCCCCCOc3ccc(Cl)cc3)c2)N=C2SCCCN12', 'top end'),
  ('Cc1sc2c(c1C)c(=O)nc1c(-c3nc4ccccc4s3)n[nH]n12', 'top end'),
  ('COc1ccc(/C(C)=C(\c2ccc(Cl)cc2)c2ccc(OCCN3CCCCCC3)cc2)cc1', 'midrange'),
  ('CC(C)OP(=O)(CCC(=O)c1c[nH]c2ccccc12)OC(C)C', 'top end'),
  ('CCc1nc2cc(/C=C/C(=O)NO)ccc2c(=O)n1CCc1ccc(F)cc1', 'bottom end'),
  ('Cc1ccc(-c2cc3c(SCC(=O)Nc4cc(C(F)(F)F)ccc4Cl)nccn3n2)cc1', 'bottom end'),
  ('Cc1cccc(Cl)c1NC(=O)c1cnc(Nc2cc(N3CCOCC3)cc(N3CCOCC3)c2)s1', 'top end'),
  ('CN(C)CCOC(=O)Nc1nc2ccc(Sc3ccccc3)cc2[nH]1', 'midrange'),
  ('CC(C)CC(=O)Nc1n[nH]c2c1CN(C(=O)C1CCN(C)CC1)C2(C)C', 'bottom end'),
  ('COc1cnc2c(c1)C(=O)c1c-2n(CCCN2CCOCC2)c(=O)c2cc(Cl)ccc12', 'bottom end'),
  ('COc1cc2nccc(Oc3ccc(NC(=O)Nc4cc(C)on4)c(Cl)c3)c2cc1OC', 'midrange'),
  ('CC(C)[C@@H]1CC[C@]2(CO2)[C@@H]2C(=O)OCC(C(=O)O)=C[C@H]21', 'midrange'),
  ('CO[C@H]1C[C@@H]2CC[C@@H](C)[C@@](O)(O2)C(=O)C(=O)N2CCCC[C@H]2C(=O)O[C@H]([C@H](C)C[C@@H]2CC[C@@H](O)[C@H](OC)C2)CC(=O)[C@H](C)/C=C(\C)[C@@H](O)[C@@H](OC)C(=O)[C@H](C)C[C@H](C)\C=C/C=C/C=C/1C', 'bottom end'),
  ('Cc1ccc(NC(=O)c2ccc(CN3CC[C@H](N(C)C)C3)c(C(F)(F)F)c2)cc1Nc1nccc(-c2cncnc2)n1', 'bottom end'),
  ('Cc1cc(N(CCNc2ccnc3cc(Cl)ccc23)Cc2ccc3c(c2)OCO3)nc(N2CCN(C)CC2)n1', 'bottom end'),
  ('CN1CCN(CCOc2cc(OC3CCOCC3)c3c(Nc4c(Cl)ccc5c4OCO5)ncnc3c2)CC1', 'top end'),
  ('O=[N+]([O-])c1cc(Br)cc2c1[nH]c1ccc(Br)cc12', 'midrange'),
  ('CC(C)C1CCC(C)C(C2(C#N)C(N)=NC(N)=C2C#N)C1=O (stereo not drawn)', 'top end'),
  ('Cc1nn(-c2ccccc2)c2c1N=c1s/c(=C\c3cn(-c4ccccc4)nc3-c3ccc(Cl)cc3)c(=O)n1C(C)N2 (stereo not drawn)', 'top end'),
  ('COc1c(C(NC(=O)c2ccccc2)c2sccc2C)cc(Cl)c2cccnc12 (stereo not drawn)', 'top end'),
  ('CCOC(=O)Sc1ncnc2nc[nH]c12', 'bottom end'),
  ('Cn1ncc(Cl)c1-c1cc(C(=O)N[C@H](CN)Cc2ccc(F)c(F)c2)oc1Cl', 'bottom end'),
  ('COc1cnc2c(c1)C(=O)c1c-2n(CCCn2ccnc2)c(=O)c2cc(Cl)ccc12', 'bottom end'),
  ('O=C(Nc1nc2cccc(-c3ccc(CN4CCS(=O)(=O)CC4)cc3)n2n1)C1CC1', 'bottom end'),
  ('CN(C)CCn1c(=O)c2c3cc4c(cc3n(CCN(C)C)c2c2ccc(Cl)cc21)OCO4', 'midrange'),
  ('CN1CC[C@H](c2c(O)cc(O)c3c(=O)cc(-c4ccccc4Cl)oc23)[C@H](O)C1', 'bottom end'),
  ('O=C(Nc1ccc(N=Nc2ccccc2)cc1)c1cccc2ccccc12', 'midrange'),
  ('CN1CCN(CCCOc2cccc3nc(Nc4ccc(Cl)c(C(F)(F)F)c4)ccc23)CC1', 'bottom end');

###

A collection of molecules and their measured growth
Test system: HOP-92 NSCLC
Test: NCI-60 one-dose screen, 48 h (100 = growth as untreated, 0 = no growth, -100 = all killed)
Conditions: 10 µM unless noted
The panel holds about 83,000 compounds, 20% with a hit somewhere; the sample as a whole holds those more often.
Readout Label: growth (%)

INSERT INTO assay_data (molecule, tested_target, readout_label, value_reported) VALUES
  ('C=CCn1c(=O)c2cnc(Nc3ccc(N4CCN(C)CC4)cc3)nc2n1-c1cccc(C(C)(C)O)n1', 'HOP-92 NSCLC', 'growth', 49.2),
  ('COc1cc(Nc2ncc3c(n2)-c2ccc(Cl)cc2C(c2c(F)cccc2OC)=NC3)ccc1C(=O)O', 'HOP-92 NSCLC', 'growth', 115),
  ('O=C1OCC2=C1C(c1cccc(F)c1)c1cc3c(cc1N2CCO)OCCO3 (stereo not given)', 'HOP-92 NSCLC', 'growth', 66.6),
  ('CNC(=O)c1cc(Oc2ccc(NC(=O)Nc3ccc(Cl)c(C(F)(F)F)c3)c(F)c2)ccn1', 'HOP-92 NSCLC', 'growth', -20.1),
  ('CCOC(=O)C1=C(C)N=C2Sc3cc(OC(F)(F)F)ccc3N2[C@H]1c1ccccn1', 'HOP-92 NSCLC', 'growth', 68);

###

Tested on: SR leukemia
Test: NCI-60 one-dose screen, 48 h (100 = growth as untreated, 0 = no growth, -100 = all killed)
Details: 10 µM unless noted
This is part of a sample that, as a whole, favours compounds with a hit. Of some 83,000 tested, about 20% had one in any assay.
A collection of molecules and their measured growth
Readout Label: growth (%)

INSERT INTO assay_data (molecule, tested_target, value_reported) VALUES
  ('CC(C)Nc1cc(-c2c[nH]c(C(=O)N[C@H](CO)c3cccc(Cl)c3)c2)c(Cl)cn1', 'SR leukemia', 23.9),
  ('Cc1ccsc1C(NC(=O)c1ccccc1)c1cc(Cl)c2cccnc2c1O (configuration not stated)', 'SR leukemia', 13.2),
  ('COc1cnc2c(c1)C(=O)c1c-2n(CCCN2CCC(O)CC2)c(=O)c2cc(Cl)ccc12', 'SR leukemia', -16.9),
  ('O=C(NO)c1ccc(Cn2c(=O)n(CCc3ccccc3)c(=O)c3ccccc32)cc1', 'SR leukemia', 20),
  ('CC(=Nc1ccccc1)C1=C(O)C(Cc2ccccc2)NC1=O (configuration not stated)', 'SR leukemia', -12),
  ('COC(=O)CC[C@@H](C)[C@H]1CC[C@H]2C3CC[C@@H]4C[C@@H]5CC[C@]4(C)[C@@]3(O5)[C@H](Br)[C@@H](Br)[C@]12C (some centres not stated)', 'SR leukemia', 82.6),
  ('COc1cc2c(Nc3ccc(Br)cc3F)ncnc2cc1OCC1CCN(C)CC1', 'SR leukemia', -6.08),
  ('COC(=O)Nc1nc2ccc(C(=O)c3ccc(N(C)C4COC4)cc3)cc2[nH]1', 'SR leukemia', 14.4),
  ('COc1cc2c(Oc3ccc(NC(=O)C4(C(=O)Nc5ccc(F)cc5)CC4)cc3F)ccnc2cc1OCCCN1CCOCC1', 'SR leukemia', -16.7),
  ('COc1cc2c(cc1OCCCCN1CCN(CC(=O)Nc3ccc(Cl)cc3C(=O)c3ccccc3Cl)CC1)N=CC1CCCN1C2=O (configuration not stated)', 'SR leukemia', -66.7),
  ('O=C(c1ccc(F)c(F)c1Nc1ccc(I)cc1F)N1CC(O)([C@@H]2CCCCN2)C1', 'SR leukemia', -15.2),
  ('CC(C)[C@@H]1CC[C@]2(CO2)[C@@H]2C(=O)OCC(C(=O)O)=C[C@H]21', 'SR leukemia', -4.75),
  ('CCCCn1c(C)nc2ccc(Nc3nc(N4CCN(C)CC4)nc4nc[nH]c34)cc21', 'SR leukemia', 84),
  ('COc1ccc(Nc2ncccc2NC(=O)c2cn(Cc3cccc(Oc4ccccc4)c3)nn2)cc1', 'SR leukemia', 74.2),
  ('Clc1ccc(Nc2nccc(Nc3ccc4[nH]ncc4c3)n2)cc1', 'SR leukemia', 2.66),
  ('Cc1ccc(-c2nc3ccc(Cl)cn3c2NC2CCCCC2)o1', 'SR leukemia', 54.3),
  ('OCCNC(=S)Nc1ccc(-c2nc(N3C[C@H]4CC[C@@H](C3)O4)c3cccn3n2)cc1', 'SR leukemia', 11.1),
  ('Cc1nc2ccc(-n3ncc(C(=O)c4cc5ccccc5[nH]4)c3N)cc2[nH]1', 'SR leukemia', 14.6),
  ('CN1CCC(CNc2ccc3ncc(-c4cccc(OC(F)(F)F)c4)n3n2)CC1', 'SR leukemia', -19.4),
  ('Nc1c(Cl)cccc1[N+](=O)[O-]', 'SR leukemia', 104),
  ('COC(=O)CNC(=O)[C@@H](OC)[C@@H]1Cc2cc3cc(OC4CC(OC5CC(O)C(O)C(C)O5)C(O)C(C)O4)c(C)c(O)c3c(O)c2C(=O)[C@H]1OC1CC(OC2CC(OC3CC(C)(O)C(O)C(C)O3)C(O)C(C)O2)C(O)C(C)O1 (some centres not stated)', 'SR leukemia', 11.1),
  ('CN[C@@H]1C[C@H]2O[C@@](C)([C@@H]1OC)n1c3ccccc3c3c4c(c5c6ccccc6n2c5c31)C(=O)N[C@H]4O', 'SR leukemia', 1.68),
  ('C[C@@H](Oc1cc(-c2cnn(C3CCNCC3)c2)cnc1N)c1c(Cl)ccc(F)c1Cl', 'SR leukemia', -35.7),
  ('O=C1CSC(c2c(F)cccc2Cl)N1NC(=O)C(O)(c1ccccc1)c1ccccc1 (configuration not stated)', 'SR leukemia', 95.5),
  ('CNC(=O)CN1CCC(Oc2cc3c(Nc4cccc(Cl)c4F)ncnc3cc2OC)CC1', 'SR leukemia', 63.8),
  ('NC(=O)Nc1cc(-c2cccc(F)c2)sc1C(=O)N[C@H]1CCCNC1', 'SR leukemia', -6.47),
  ('CCN1CCN(c2cc(C)nc(N(CCCNc3ccnc4cc(Cl)ccc34)Cc3cccs3)n2)CC1', 'SR leukemia', -34),
  ('N#CCNC(=O)c1ccc(-c2ccnc(Nc3ccc(N4CCOCC4)cc3)n2)cc1', 'SR leukemia', 6.43),
  ('O=C(NC[C@H](O)CO)c1ccncc1Nc1ccc(I)cc1F', 'SR leukemia', 57.2),
  ('CC[C@@H]1C(=O)N(C)c2cnc(Nc3ccc(C(=O)NC4CCN(C)CC4)cc3OC)nc2N1C1CCCC1', 'SR leukemia', -20.7),
  ('CCN(CC)CCNC(=O)c1c(C)[nH]c(/C=C2\C(=O)Nc3ccc(F)cc32)c1C', 'SR leukemia', -9.44),
  ('N#CC[C@H](C1CCCC1)n1cc(-c2ncnc3[nH]ccc23)cn1', 'SR leukemia', 2.14),
  ('Nc1nc(N)c2cc(CNc3ccc(C(=O)NC(CC(=O)O)C(=O)O)cc3)ccc2n1 (configuration not stated)', 'SR leukemia', 13.8),
  ('CCc1nc2cc(/C=C/C(=O)NO)ccc2c(=O)n1CCc1ccc(F)cc1', 'SR leukemia', 10.7),
  ('Cc1cc(Nc2cc(N3CCN(C)CC3)nc(Sc3ccc(NC(=O)C4CC4)cc3)n2)n[nH]1', 'SR leukemia', 16.7),
  ('O=C1NC(=O)[C@@H](c2cn3c4c(cccc24)CCC3)[C@@H]1c1c[nH]c2ccccc12', 'SR leukemia', 13.8),
  ('COC(=O)C1CCc2sc3ncnc(Nc4cn[nH]c4C(=O)Nc4ccc(CN5CCN(C)CC5)cc4)c3c21 (configuration not stated)', 'SR leukemia', -25.7);
